Test system: LOX IMVI melanoma
Test: NCI tumour cell line growth inhibition, 48 h; in the data active = GI50 below about 0.43 µM; inactive = the rest
Bench note: report the call from active, inactive

As a guide, the following entries are already answered.
COc1ccc2c(c1)OC1=C(C(=O)OC1)C2c1cc(OC)c(OC)c(OC)c1 (stereo unspecified)    inactive
CC[Si](CC)(CC)OC[C@]1([C@@H]2COC(C)(C)O2)CC=CC(=O)O1    inactive

Query: # lookup: test call for "CCN=c1cc2sc3cc(NCC)c(C)cc3nc-2cc1C"
Reply: inactive

Query: # lookup: test call for CCC[CH2][Sn]([CH2]CCC)([O]C(=O)C(N)CSC)[O]C(=O)C(N)CSC (stereo unspecified)
Reply: inactive

---

Tested on: HCC-2998 colon
Experiment: NCI tumour cell line growth inhibition, 48 h; in the data active means GI50 below about 0.43 µM; inactive means the rest
Where a SMILES comes first, the peptide text is derived from it. [ ]: non-standard residue; d: D form. The star is where a group is joined. ξ: configuration not given here. NMeN = CN[C@@H](CC(N)=O)C(=O)O; NMeV = CN[C@H](C(=O)O)C(C)C; ξNMeV = CNC(C(=O)O)C(C)C; Boc = CC(C)(C)OC(=O)*; ξNMeA = CNC(C)C(=O)O
Bench note: report the call from active, inactive

As a guide, the following entries are already answered.
COC(=O)C(C)N(C)C(=O)[C@H](CC(N)=O)N(C)C(=O)[C@@H]1CCCN1C(=O)[C@H](C(C)C)N(C)C(=O)C(C(C)C)N(C)C(=O)[C@@H](NC(=O)OC(C)(C)C)C(C)C (stereo partly drawn) (Boc-V[ξNMeV][NMeV]P[NMeN][ξNMeA]-OMe)    inactive
COc1cc2c(cc1OCCCCCCN1CCN(c3ncnc4ccccc34)CC1)N=CC1CCCN1C2=O (stereo not drawn)    active

# evaluate next
Query: # lookup: test call for "C=CCN1C=CC(=O)[C@H](O[Si](C)(C)C(C)(C)C)[C@@H]1/C=C/c1ccccc1"
Reply: inactive

---

Test system: MALME-3M melanoma
Assay: NCI tumour cell line growth inhibition, 48 h
Rule: TGI under 8 µM gives label 0, otherwise label 1.

Cc1ccc(-c2nc(N)nc3c2nnn3Cc2cccc(CO[C@H]3CCOC3)n2)o1    label 1
COC(=O)C1=C(\c2ccccc2)c2ccccc2C(=O)N(C2CCCCC2)/C=C\1    label 1
COc1cc(C2c3cc4c(cc3OC(Nc3ccccc3)C2C)OCO4)cc(OC)c1OC (stereo not given)    label 1
COc1cc(C=Nc2ccc(C(C)C)cc2)cc(OC)c1OC    label 1
Cc1nn(-c2ccccc2)c2[nH]c(=S)cnc12    label 1

Query: Could you please find out whether "C[C@H]1C[C@H](C)c2ccccc2N(C)C1=Nc1ccccc1" has TGI that meets 8 µM or exceeds it?
Reply: label 1

Query: Could you please find out whether "CCOc1ccc(Nc2nc(-c3ccc4c(c3)NC(=O)CO4)cs2)cc1" has TGI that meets 8 µM or exceeds it?
Reply: label 1

Query: Could you please find out whether "COc1ccc2cc3[n+](cc2c1OC)CCc1cc(O)c(O)cc1-3" has TGI that meets 8 µM or exceeds it?
Reply: label 1

Query: Could you please find out whether "Cc1cc(N2CCN(c3ccnc4cc(Cl)ccc34)CC2)nc(NC2CCCCC2)n1" has TGI that meets 8 µM or exceeds it?
Reply: label 0

Query: Could you please find out whether "Nc1cn(Cc2ccccc2)c2nc(/C=C3/C=CC=CC3=O)c(O)n12" has TGI that meets 8 µM or exceeds it?
Reply: label 1

Query: Could you please find out whether "Nc1nc(=S)[nH]c(C(=O)Nc2ccc(Cl)c(Cl)c2)c1-c1ccc(Cl)cc1" has TGI that meets 8 µM or exceeds it?
Reply: label 1

Query: Could you please find out whether "CC(=O)N/C(=C\c1cccc([N+](=O)[O-])c1)c1nc2c3c(ccc2[nH]1)C(=O)c1ccccc1C3=O" has TGI that meets 8 µM or exceeds it?
Reply: label 1

Query: Could you please find out whether "COc1cc2c(Oc3ccc4[nH]c(C)cc4c3F)ccnc2cc1OCC1(N)CC1" has TGI that meets 8 µM or exceeds it?
Reply: label 0

Query: Could you please find out whether "C=C[C@H]1CCC/C=C/[C@@H]2C[C@H](O)C[C@H]2[C@H](O)/C=C/C(=O)O1" has TGI that meets 8 µM or exceeds it?
Reply: label 0

Query: Could you please find out whether "COC(=O)c1ccc(N=NN(C)COc2ccc([N+](=O)[O-])cc2)cc1" has TGI that meets 8 µM or exceeds it?
Reply: label 1

Query: Could you please find out whether "Cc1cccc(C)c1NC(=O)CCc1nnc2s/c(=C\c3ccc(Cl)cc3)c(=O)n12" has TGI that meets 8 µM or exceeds it?
Reply: label 1

Query: Could you please find out whether COc1ccc2c(c1)OC1=C(C(=O)OC1)C2c1cc(OC)c(OC)c(OC)c1 (stereo not given) has TGI that meets 8 µM or exceeds it?
Reply: label 1

Query: Could you please find out whether CC(=O)OCC1OC(N2C(C)=C(C(C)=O)C(c3ccco3)C(C#N)=C2S)C(OC(C)=O)C(OC(C)=O)C1OC(C)=O (stereo not given) has TGI that meets 8 µM or exceeds it?
Reply: label 1

Query: Could you please find out whether CC(C)C1CCC/C=C/C=C/C=C/C=C/C(OC2OC(C)C(O)C(N)C2O)CC2OC(O)(CC(O)CC(O)C(O)CCC(=O)O1)CC(O)C2C(=O)O (stereo not given) has TGI that meets 8 µM or exceeds it?
Reply: label 1
